This collection of values is drawn from patent US20220281997A1.

molecular target: T1, AS154 VHH (camel-derived); experiment: indirect ELISA, VHH coated
T1 construct: One of the 10 different camel-derived nanobodies; not shown: His tag (VHH-His)
T1 sequence (VHH, as listed by the source): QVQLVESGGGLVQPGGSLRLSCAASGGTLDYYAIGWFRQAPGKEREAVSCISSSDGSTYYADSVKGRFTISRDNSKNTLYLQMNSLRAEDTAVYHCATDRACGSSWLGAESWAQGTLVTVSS
MEASURED ENDPOINT: binding result

- BINDER: "R166.F2 (antibody, V domains shown, Rabbit monoclonal; also called clone R166.F2) VH: QSVEESGGRLVTPGTPLTLTCTASGFTISSHDMSWVRQAPGKGLEWIGYIYYGSGSTDYASWAEGRFTITRNTNENTVTLKMTSLTTEDTATYFCARGGYVGGGVDAFDPWGPGTVVTVSS VL: AYDMTQTPASVEVAVGGTVTIKCQASQSIYTYLSWYQQKPGQPPKLLIYRASTLASGVSSRFKGSGSGTDFTLTISGAQCADAATYYCQQGALSSNIHNTFGGGTEVVVKG"
  VALUE: "binds"
- BINDER: "R166.A5 (antibody, V domains shown, Rabbit monoclonal; also called clone R166.A5; antibody clone R166.A5) VH: QSVEESGGRLVTPGTPLTLTCTVSGFSLNNYTVIWVRQAPGKGLEWIGIIFGSGGTYYATWAEGRFTISRTSTTVDLKMTSPTTEDTATYFCARGYFGNTFWAMDPWGPGTLVTVSS VL: NIVMTQTPASVSGAVGGTVTIKCQASQSISTYLSWYQQKPGQPPKLLIYQASELAYGVSSRFKGSGSGTEFTLTISGVECADAATYYCQQGYSDINVDNFFGGGTEVVVKG"
  VALUE: "binds"
